Tested on: HCI-023 (organoid from a triple-negative breast cancer xenograft)
test protocol: CTG-3D luminescence at 96 h relative to day-0 seeding control (ratio to day 0); higher = more growth / less cytotoxicity; PDxO 3D drug screen, 96 h, CTG-3D normalised to day-0 seeding control.
test settings: 0.1 µM; days in culture: 111
Recorded measurements of CTG-3D luminescence at 96 h, one per entry
measured attribute: CTG-3D luminescence at 96 h

[[record]]
smiles_input = "CC[C@H](NC(=O)[C@H](C)NC)C(=O)N1C[C@@H](O)C[C@H]1Cc1c(-c2[nH]c3cc(F)ccc3c2C[C@@H]2C[C@H](O)CN2C(=O)[C@H](CC)NC(=O)[C@H](C)NC)[nH]c2cc(F)ccc12"
assay_value = 0.0512

[[record]]
smiles_input = "C[C@@H]1COCCN1c1cc(C2([S@](C)(=N)=O)CC2)nc(-c2cc[nH]c3nccc2-3)n1"
assay_value = 1.31

[[record]]
smiles_input = "CC(C)(C(=O)NCC(F)(F)C(F)(F)F)C(=O)N[C@@H]1C(=O)Nc2ccccc2-c2ccccc21"
assay_value = 0.975

[[record]]
smiles_input = "CC1(C)CCC(c2ccc(Cl)cc2)=C(CN2CCN(c3ccc(C(=O)NS(=O)(=O)c4ccc(N[C@H](CCN5CCOCC5)CSc5ccccc5)c(S(=O)(=O)C(F)(F)F)c4)cc3)CC2)C1"
assay_value = 1.26

[[record]]
smiles_input = "Cc1nc(-c2cn3c(n2)-c2ccc(-c4cnn(C(C)(C)C(N)=O)c4)cc2OCC3)n(C(C)C)n1"
assay_value = 0.966

[[record]]
smiles_input = "NC(=O)c1cccc2cn(-c3ccc([C@@H]4CCCNC4)cc3)nc12"
assay_value = 1.16

